System: asah1
protocol-text: Real-time quantitative PCR of PLsis marker gene expression
Format: cell-based, human
experimental-conditions: HepG2 cells, 24 hr exposure, relative value, control group = 1.0, GAPDH internal standard, n=3
Give measured expression variation rate asah1 for each item. Keep answers brief.
Give bare numbers.

>>> reported_measurement("Cc1cc(NS(=O)(=O)c2ccc(N)cc2)no1")
1.26
>>> reported_measurement("CC(=O)N1CCN(c2ccc(OCC3COC(Cn4ccnc4)(c4ccc(Cl)cc4Cl)O3)cc2)CC1 (stereo not drawn)")
1.47

// moving on: another record for expression variation rate asah1
Enter expression variation rate asah1 (test system asah1) for Clc1ccccc1CNCC1CCC(CNCc2ccccc2Cl)CC1 (stereo not drawn)
4.71
